Molecular target: NbALFA
Assay: SPR measurements of NbALFA binding (Biacore T200, multi cycle kinetics, 1:1 binding model)
Details: 25° C., HBS-EP+ buffer, biotinylated NbALFA captured
Bridge positions count the residues as written; N and C are the ends. Peptide text beside a SMILES is read from it.

compound	kd
CC(=O)N[C@@H](CO)C(=O)N[C@@H](CCCNC(=N)N)C(=O)N[C@@H](CC(C)C)C(=O)N[C@@H](CCC(=O)O)C(=O)N[C@@H](CCC(=O)O)C(=O)N[C@@H](CCC(=O)O)C(=O)N[C@@H](CC(C)C)C(=O)N[C@@H](CCCNC(=N)N)C(=O)N[C@H]1CCCCNC(=O)CC[C@@H](C(N)=O)NC(=O)[C@H]([C@@H](C)O)NC(=O)[C@H](CC(C)C)NC(=O)[C@H](CCCNC(=N)N)NC1=O [SD15193] (Ac-SRLEEELRKRLTE-NH2; lactam 9-13)	0.00109 s⁻¹

====

Experiment: Plasma stability, human plasma
Details: human plasma, 37° C., timepoint 24 h
Bridge positions count the residues as written; N and C are the ends. Peptide text beside a SMILES is read from it.
Reported values of Tube 3 (compound concentration) for individual entries

compound	Tube 3 (compound concentration)
CC(=O)N[C@@H](CO)C(=O)N[C@@H](CCCNC(=N)N)C(=O)N[C@@H](CC(C)C)C(=O)N[C@@H](CCC(=O)O)C(=O)N[C@H]1CC(=O)NCCCC[C@@H](C(=O)N[C@@H](CCCNC(=N)N)C(=O)N[C@@H](CC(C)C)C(=O)N[C@H](C(=O)N[C@@H](CCC(=O)O)C(N)=O)[C@@H](C)O)NC(=O)[C@H](CCCNC(=N)N)NC(=O)[C@H](CC(C)C)NC(=O)[C@H](CCC(=O)O)NC1=O [SD15196] (Ac-SRLEDELRKRLTE-NH2; lactam 5-9)	0.694
CC(=O)N[C@@H](CO)C(=O)N[C@@H](CCCNC(=N)N)C(=O)N[C@@H](CC(C)C)C(=O)N[C@@H](CCC(=O)O)C(=O)N[C@H]1CCC(=O)NCCCC[C@@H](C(=O)N[C@@H](CCCNC(=N)N)C(=O)N[C@@H](CCCNC(=N)N)C(=O)N[C@@H](CC(C)C)C(=O)N[C@H](C(=O)N[C@@H](CCC(=O)O)C(N)=O)[C@@H](C)O)NC(=O)[C@H](CC(C)C)NC(=O)[C@H](CCC(=O)O)NC1=O [SD15192] (Ac-SRLEEELKRRLTE-NH2; lactam 5-8)	0.046
CC(=O)N[C@@H](CO)C(=O)N[C@@H](CCCNC(=N)N)C(=O)N[C@@H](CC(C)C)C(=O)N[C@@H](CCC(=O)O)C(=O)N[C@H]1CCC(=O)NCCCC[C@@H](C(=O)N[C@@H](CCCNC(=N)N)C(=O)N[C@@H](CC(C)C)C(=O)N[C@H](C(=O)N[C@@H](CCC(=O)O)C(N)=O)[C@@H](C)O)NC(=O)[C@H](CCCNC(=N)N)NC(=O)[C@H](CC(C)C)NC(=O)[C@H](CCC(=O)O)NC1=O [SD15194] (Ac-SRLEEELRKRLTE-NH2; lactam 5-9)	1.368
CC(=O)N[C@@H](CO)C(=O)N[C@@H](CCCNC(=N)N)C(=O)N[C@@H](CC(C)C)C(=O)N[C@@H](CCC(=O)O)C(=O)N[C@@H](CCC(=O)O)C(=O)N[C@@H](CCC(=O)O)C(=O)N[C@@H](CC(C)C)C(=O)N[C@@H](CCCNC(=N)N)C(=O)N[C@H]1CCCCNC(=O)CC[C@@H](C(N)=O)NC(=O)[C@H]([C@@H](C)O)NC(=O)[C@H](CC(C)C)NC(=O)[C@H](CCCNC(=N)N)NC1=O [SD15193] (Ac-SRLEEELRKRLTE-NH2; lactam 9-13)	1.888

====

Conditions: mouse, in vivo, iv, 10 mg/kg, Vss
recorded endpoint: Vd

> print(dat)
                         substance      value
1  Ac-PSRLEEELRRRLTE-NH2 [SD14316]  2.95 L/kg

====

Test: Plasma stability, mouse plasma
Conditions: mouse plasma, 37° C., timepoint 0 h
Bridge positions count the residues as written; N and C are the ends. Square brackets hold non-standard residues; d marks the D form. Peptide text beside a SMILES is read from it.
Criterion: Mean (compound concentration) meeting or surpassing 3. Met: rule met. Not met: rule not met.

molecule	discrete label
CC(=O)N1CCC[C@H]1C(=O)N[C@@H](CO)C(=O)N[C@@H](CCCNC(=N)N)C(=O)N[C@@H](CC(C)C)C(=O)N[C@@H](CCC(=O)O)C(=O)N[C@H]1CSSC[C@H](C(=O)N[C@@H](CCCNC(=N)N)C(=O)N[C@@H](CCCNC(=N)N)C(=O)N[C@@H](CC(C)C)C(=O)N[C@H](C(=O)N[C@@H](CCC(=O)O)C(N)=O)[C@@H](C)O)NC(=O)[C@H](CC(C)C)NC(=O)[C@H](CCC(=O)O)NC1=O [SD15807] (Ac-PSRLECEL[dC]RRLTE-NH2; disulfide 6-9)	rule not met
CC(=O)N1CCC[C@H]1C(=O)N[C@@H](CO)C(=O)N[C@@H](CCCNC(=N)N)C(=O)N[C@@H](CC(C)C)C(=O)N[C@@H](CCC(=O)O)C(=O)N[C@H]1CCCCNC(=O)CC[C@@H](C(=O)N[C@@H](CCCNC(=N)N)C(=O)N[C@@H](CC(C)C)C(=O)N[C@H](C(=O)N[C@@H](CCC(=O)O)C(N)=O)[C@@H](C)O)NC(=O)[C@H](CCCNC(=N)N)NC(=O)[C@H](CC(C)C)NC(=O)[C@H](CCC(=O)O)NC1=O [SD15805] (Ac-PSRLEKELRERLTE-NH2; lactam 6-10)	rule not met
CC(=O)N1CCC[C@H]1C(=O)N[C@@H](CO)C(=O)N[C@@H](CCCNC(=N)N)C(=O)N[C@@H](CC(C)C)C(=O)N[C@@H](CCC(=O)O)C(=O)N[C@H]1CCC(=O)NCCCC[C@H](C(=O)N[C@@H](CCCNC(=N)N)C(=O)N[C@@H](CC(C)C)C(=O)N[C@H](C(=O)N[C@@H](CCC(=O)O)C(N)=O)[C@@H](C)O)NC(=O)[C@H](CCCNC(=N)N)NC(=O)[C@H](CC(C)C)NC(=O)[C@H](CCC(=O)O)NC1=O [SD15808] (Ac-PSRLEEELR[dK]RLTE-NH2; lactam 6-10)	rule met
CC(=O)N[C@@H](CO)C(=O)N[C@@H](CCCNC(=N)N)C(=O)N[C@@H](CC(C)C)C(=O)N[C@@H](CCC(=O)O)C(=O)N[C@H]1CCC(=O)NCCCC[C@@H](C(=O)N[C@@H](CCCNC(=N)N)C(=O)N[C@@H](CC(C)C)C(=O)N[C@H](C(=O)N[C@@H](CCC(=O)O)C(N)=O)[C@@H](C)O)NC(=O)[C@H](CCCNC(=N)N)NC(=O)[C@H](CC(C)C)NC(=O)[C@H](CCC(=O)O)NC1=O [SD15194] (Ac-SRLEEELRKRLTE-NH2; lactam 5-9)	rule not met

====

Experiment: Plasma stability, mouse plasma
Settings: mouse plasma, 37° C., timepoint 6 h
Bridge positions count the residues as written; N and C are the ends. Square brackets hold non-standard residues; d marks the D form. Peptide text beside a SMILES is read from it.

molecule	Tube 1 (compound concentration), x
CC(=O)N1CCC[C@H]1C(=O)N[C@@H](CO)C(=O)N[C@@H](CCCNC(=N)N)C(=O)N[C@@H](CC(C)C)C(=O)N[C@H]1CCC(=O)NCCCC[C@@H](C(=O)N[C@@H](CCCNC(=N)N)C(=O)N[C@@H](CCCNC(=N)N)C(=O)N[C@@H](CC(C)C)C(=O)N[C@H](C(=O)N[C@@H](CCC(=O)O)C(N)=O)[C@@H](C)O)NC(=O)[C@H](CC(C)C)NC(=O)[C@H](CCC(=O)O)NC(=O)[C@H](CCC(=O)O)NC1=O [SD15806] (Ac-PSRLEEELKRRLTE-NH2; lactam 5-9)	2.258
CC(=O)N1CCC[C@H]1C(=O)N[C@@H](CO)C(=O)N[C@@H](CCCNC(=N)N)C(=O)N[C@@H](CC(C)C)C(=O)N[C@@H](CCC(=O)O)C(=O)N[C@H]1CCCCNC(=O)CC[C@@H](C(=O)N[C@@H](CCCNC(=N)N)C(=O)N[C@@H](CC(C)C)C(=O)N[C@H](C(=O)N[C@@H](CCC(=O)O)C(N)=O)[C@@H](C)O)NC(=O)[C@H](CCCNC(=N)N)NC(=O)[C@H](CC(C)C)NC(=O)[C@H](CCC(=O)O)NC1=O [SD15805] (Ac-PSRLEKELRERLTE-NH2; lactam 6-10)	1.429
CC(=O)N1CCC[C@H]1C(=O)N[C@@H](CO)C(=O)N[C@@H](CCCNC(=N)N)C(=O)N[C@@H](CC(C)C)C(=O)N[C@@H](CCC(=O)O)C(=O)N[C@H]1CSSC[C@H](C(=O)N[C@@H](CCCNC(=N)N)C(=O)N[C@@H](CCCNC(=N)N)C(=O)N[C@@H](CC(C)C)C(=O)N[C@H](C(=O)N[C@@H](CCC(=O)O)C(N)=O)[C@@H](C)O)NC(=O)[C@H](CC(C)C)NC(=O)[C@H](CCC(=O)O)NC1=O [SD15807] (Ac-PSRLECEL[dC]RRLTE-NH2; disulfide 6-9)	0.803
